- study.system: HLA-A*11:01
- measurement.description: IEDB peptide-MHC binding, purified MHC/direct/fluorescence; filed as Kd, often an IC50 or EC50 that approximates it; bounds were set here for any values at or beyond the usual limits of such assays
- measurement.parameters: source organism: Campylobacter jejuni
reported.endpoint: Kd

Notebook entry, HLA-A*11:01 assay: Kd of WFGHLASDW = ?
≥ 20 µM

* * *

- study.system: HLA-A*24:02
- measurement.description: IEDB peptide-MHC binding, purified MHC/competitive/radioactivity; filed as Kd, often an IC50 or EC50 that approximates it; bounds were set here for any values at or beyond the usual limits of such assays
- measurement.parameters: source organism: Triticum aestivum
pKd: −log10 of the molar value.
reported.endpoint: pKd

Notebook entry, HLA-A*24:02 assay: pKd of KSQVLQQSTY = ?
≤ 4.15

* * *

- study.system: HLA-B*58:01
- measurement.description: IEDB peptide-MHC binding, purified MHC/direct/fluorescence; filed as Kd, often an IC50 or EC50 that approximates it; bounds were set here for any values at or beyond the usual limits of such assays
- measurement.parameters: source organism: Influenza A virus (A/duck/Mongolia/47/2001(H7N1))
pKd: −log10 of the molar value.
reported.endpoint: pKd

May I ask what pKd has been recorded for NESGRLIDF ?
≤ 4.70

* * *

- study.system: HLA-A*02:19
- measurement.description: IEDB peptide-MHC binding, purified MHC/direct/fluorescence; filed as Kd, often an IC50 or EC50 that approximates it; bounds were set here for any values at or beyond the usual limits of such assays
- measurement.parameters: source organism: Cryptosporidium parvum Iowa II
reported.endpoint: Kd

May I ask what Kd has been recorded for TVFRNQNRV ?
≥ 20 µM

* * *

- study.system: HLA-A*02:01
- measurement.description: IEDB peptide-MHC binding, purified MHC/competitive/radioactivity; filed as Kd, often an IC50 or EC50 that approximates it; bounds were set here for any values at or beyond the usual limits of such assays
- measurement.parameters: source organism: Dengue virus 2 Thailand/NGS-C/1944
reported.endpoint: pKd
Friendly reminder that pKd comes from taking -log10 of the concentration in mol/L.

May I ask what pKd has been recorded for MLLVLCVTQV ?
7.58

* * *

- study.system: HLA-B*15:01
- measurement.description: IEDB peptide-MHC binding, purified MHC/competitive/fluorescence; filed as Kd, often an IC50 or EC50 that approximates it; bounds were set here for any values at or beyond the usual limits of such assays
- measurement.parameters: source organism: Zaire ebolavirus
reported.endpoint: Kd

>>> observed_value("TSACGIFLK")
"≥ 20 µM"

Notebook entry, HLA-B*15:01 assay: Kd of TPSGKRLQI = ?
≥ 20 µM

Try VLMKQIPIW next.
≥ 20 µM

* * *

- study.system: HLA-A*31:01
- measurement.description: IEDB peptide-MHC binding, purified MHC/direct/fluorescence; filed as Kd, often an IC50 or EC50 that approximates it; bounds were set here for any values at or beyond the usual limits of such assays
- measurement.parameters: source organism: Mycobacterium avium 104
pKd: −log10 of the molar value.
reported.endpoint: pKd

May I ask what pKd has been recorded for VRDVVMPAL ?
≤ 4.70

* * *

- study.system: HLA-B*58:01
- measurement.description: IEDB peptide-MHC binding, purified MHC/competitive/radioactivity; filed as Kd, often an IC50 or EC50 that approximates it; bounds were set here for any values at or beyond the usual limits of such assays
- measurement.parameters: source organism: Dengue virus 4 Philippines/H241/1956
Recorded Kd for the following sequences
The reply should be a number in µM, with the unit left off.

>>> observed_value("SASEAVNDSR")
0.0401

May I ask what Kd has been recorded for ESSSNPTIEE ?
9.49
